Cited source for all entries: the domain aggregation screens of Martell et al. (2025)

test: soluble fraction after stress (log2 fold change); higher = more stays soluble; pooled small domains, quantitative proteomics; settings: stress: pH 4
So I've got a bunch of sequences here, and I need their soluble fraction (log2) values.
Answer with a bare number; do not write a unit.

Notebook: HMWWTPIILRDALFGVQRFEDFQKNLDVSRATLSSRLTRLVDEGLMEKVEYQQHPVRHEYVLTEKGR , soluble fraction (log2) read as 0.194

Notebook: HMDDTPLNNVIKKIAALPENITLADKSAVLSAWEAYQALSVNLKAQVSNSELLIKAYETILQLEGEDQIK , soluble fraction (log2) read as -0.397

Notebook: HMKRVVFFNGISWYHRTKELLDDMTTKYGKKGGFATPEEAEKSYWEYEERYKDRQRELQVAYLKN , soluble fraction (log2) read as -0.913

Notebook: HMTRRVIRAPAAGIMRSNVKLGDLVKEGDVIAWIGEHEIKAPLTGMVRGLLNDGLAVVGGFKIGDI , soluble fraction (log2) read as 0.157

Notebook: HMKDVVAPMSGRVVRLMVAAGDEVVKRQALVVVEAMKMENVLTAPKEGRIKKVPVREGMTVEVGQTLVSFE , soluble fraction (log2) read as -0.274

Notebook: HMEVENAQLLARLTPQEHRVFERVVAGLSNREIGSEMDISIKTVEVHRARVMRKLEANSVAELVRFHIHN , soluble fraction (log2) read as -0.811

Notebook: HMATKEQIKRIYGLGAGLGIVGKDKDDMLHELIFSITGKDSVKQLDDSEFKAVQAELINRMKLA , soluble fraction (log2) read as -0.111

Notebook: HMNKAYLTVADMKKDKSLKNGDVVRTLGYYGYNDGDGAVYQIKDSHPEDYHIRLDNGLDAEQINY , soluble fraction (log2) read as 0.174

* * *

experiment: soluble fraction after stress (log2 fold change); higher = more stays soluble; pooled small domains, quantitative proteomics; details: stress: pH 4
So I've got a bunch of sequences here, and I need their soluble fraction (log2) values.
Answer with a bare number; do not write a unit.

Notebook: HMADASVTAYFKIAEDRLQGRLPDTFSEASLKARYQLTPAQLTAVLTRIAQEGWAERKPGYGWAFSSML , soluble fraction (log2) read as -1

Notebook: HMTPDVAEFRERLRQILPGEQIEVRTANDGIVLSGTVSSIARLDAALQLAERYAPSRVSNLMSVG , soluble fraction (log2) read as 0.399

Notebook: HMAPKSALKIIEQISNNPRATMTDLANLTGYSRRWVAQTIKRLQEENIIKRIGSDKSGYWEIIG , soluble fraction (log2) read as 0.417

Notebook: HMDSVVPNVVGMTAEKANKALTDAGLNVKITGATIGSGAVVHSQSIPAGTVTSKGTVVSIEMRFAAAEGD , soluble fraction (log2) read as -0.193

Notebook: HMALPQPDDDRQDTKKRILDMAEDLLLTRGFNAFSYQHISSELGMKNAAIHYHYPKKNDLGVAVIQRYRRR , soluble fraction (log2) read as -0.178

Notebook: HMEIGNVIAKLRVSNGLNQREFAKKLEVSNGAVAMWETNKRQPDLEMIKKISNLFDVPTDYILGAGTFQ , soluble fraction (log2) read as 0.152

Notebook: HMKITKIWFTADHIFGRDEEGKEYSQSLLWYPKLSAASDEERSQYTFGYDGIHWRSLDEDISFESF , soluble fraction (log2) read as -1.52

Notebook: HMLAIKKGGIFAILGPNGSGKSTFSKVLAGHPAYTVVDGDIFFKGLSILDLEPEERSHLGIFLAFQ , soluble fraction (log2) read as -0.151

Notebook: HMKQNNYATKKELNFFVSRLISLLSYRDFFNPIEKKESMINNIEAIFTRSSLTSQELRTLHGIISNLVE , soluble fraction (log2) read as -1.27

Notebook: HMPFGIYGGKVSSLDDLKDKAAVLVPNDVSNEARALLLLEAQGLIKLKEGVGLEATRNDIVEN , soluble fraction (log2) read as -0.0596

Notebook: HMEQINVTIQTEKGRIDKVLSEHLPNHSRSQIQQWLKEKHVTVNGETVRANYKVTAGDEIVVTIPEPEV , soluble fraction (log2) read as -0.18

Notebook: HMYRPLYQQVYDFLVKQIAAGEWGPGESLPSEQALAGRLNVSQGTVRKALDALAADSLIDRRQGKGTYVAE , soluble fraction (log2) read as 0.32

Notebook: HMDFPYISGIEIAAIKNREFIRIETDKAQEIAIALDKSGIPFSARFSDAEMVLTYDGSYKEQVEDIIAKA , soluble fraction (log2) read as -0.808

Notebook: HMSDLPLLEHARQNLSDDEFRILELTTIYGYRRVEVAKMLGEPISTINWKYNKLIKKVKTFYGEVYN , soluble fraction (log2) read as -0.567

Notebook: HMKKVRIPDDPEEAYRKALKTAMNIVGYKDNTEFTLREKLSERGYSGETVDAVAEFMKSKGYV , soluble fraction (log2) read as 0.00228

Notebook: HMPVQSNRDALLDIGQTLQVQAWDAQGSARVSYRGSDWTAEFRGPGAAAPGLHRIIAVQGNRLIVEPA , soluble fraction (log2) read as -0.164

Notebook: HMDMQNIQKGLSAIEPGRTFSREEYYAAIQNGSEMLLKEDALAYSLRKSLSDGDIVRVSWNQYAIP , soluble fraction (log2) read as -0.909

Notebook: HMVVANTAIKSELQNIVANENKQAPLSDQKIVDQLKQAGFDISRRTVVKYRDALGIPTSRNRKR , soluble fraction (log2) read as 0.112

Notebook: HMKTVKPSQIPYSEFLKLVETDKINDVSMVGRNIIGHLDDGSKFKTYTPPNDPTLIEKLSSHNIVINAAPE , soluble fraction (log2) read as 0.134

Notebook: HMGQARQSAIRELGNDPTSGKKITVRSGRYGPYVTDGEVNASLRKGDDPQTIDLDRAIELLAARREKLG , soluble fraction (log2) read as -0.324

Notebook: HMDAMQAFPNPTVDEIHFVTPTTGRVYNAHGQLVMVLKNAQLVNVRQWSAGQYVIVREDGYAVRWIK , soluble fraction (log2) read as -0.43

Notebook: HMQSNIHELQKKLNEALQALSEDHRAVVTMFDIQGMPHAEISKILGVSEGTVRSRLYYAHQQLQGHL , soluble fraction (log2) read as -0.663

Notebook: HMLLGDYIQKLRNQRGLSQQEFADKLGIGRSTLANYEQNKRSPDYETLIEISKFFNVSIDELLGV , soluble fraction (log2) read as -0.342

Notebook: HMSDPSAQADALFNEGKTAEAFNVLLRLIEDSPEDQREDYRVRLLDLFRIAGNTPEVKAARRRLSALLM , soluble fraction (log2) read as -0.101

Notebook: HMSEYTRGELVSSLEAGEVAAVSIRPNRETPTGEAQIVLSDGQHRVLYVTDVREIEELVSSYGLNPQVEK , soluble fraction (log2) read as -0.233

Notebook: HMSDPELNDNEKKIYDIIFNKKSMDLTELKNLSELSNKQWDKGIKSLSKQDFVKVIKTEEALIVELV , soluble fraction (log2) read as -0.126

Notebook: HMQSKDDLLDTFRVVKGNAALLNDQNKKLIRSLKVSSFGFTGITDQAAEVKKEMPDVLLEKASIEDILF , soluble fraction (log2) read as -0.595

Notebook: HMKGVTVDGDNITVDGEKQTLISVNKNLDGDVVSYTYRTADGKLRTSRNVEVAQEINKQQLLKSIDAQ , soluble fraction (log2) read as 0.0219

Notebook: HMYESAMSDLHARIMSSDDPHGEIYKMLTQSGPEAKYIQDMYNETSIDRGLHPDDDFEDIIDAMVAELDD , soluble fraction (log2) read as -1.24

Notebook: HMVKGIVPNLIGKTQDEAKQMAEEYGFSIGTVSEKASDKPKGTVIEQSPKAGAKASGVTSINIVVSDGS , soluble fraction (log2) read as -0.247

Notebook: HMQIKEVDYGTFISMTEDGEIGRVEIQQQENTILFTDEDETAVYKTAMVEDDQLTQRLYDAGISFYGEE , soluble fraction (log2) read as -0.784
